Listing of entries alongside the reported apparent Kd.
System: MS2 coat protein
PROTOCOL_SUMMARY: apparent Kd, MS2 coat protein; higher = weaker binding; RNA-MaP array; theophylline 2 mM where present
CONDITION_PARAMETERS: ligand present: theophylline; designed as: OFF switch for theophylline
Report the value in nM with no unit label.

// below: answered sequences
1. UGUUUUGUGAUGGAUACCAGCAGAGAAAACGUUUAUCCUAACAUGAGGAUCACCCAUGUAUGCCCUUGGCAGCUGUUGUGGGAUA; 34.1
2. AUGUCAUUGGUGUAGCUGUGAAGUGGCGAUACCAGCGUGGAAACACGCCCUUGGCAGCGCCAAAACAUGAGGAUCACCCAUGUUA; 156
3. UGGGCAUACAUGAGGAUCACCCAUGUAGAUACCAGCACUAGCCUGUGCCCUUGGCAGCUAACCGGGUCGAGAACUUAGUGCUCCU; 52.7
4. CUAGGAAACUAGUAAGGGUGGUAUAGAGAUACCAGUACAGAAAUGUACCCUUGGCAGCUCACUGCAACAUGAGGAUCACCCAUGU; 102

-- ask Please provide the recorded apparent Kd for UUUUAAGGGAUCGGUGCUGGUAGCAGAGAUACCAGAGUAAUGAUACUCCCUUGGCAGCUCAGUACAUGAGGAUCACCCAUGUUUU , tested on MS2 coat protein.
-- reply 25.9

All values here come from the EternaBench riboswitch data.
